species on record: Rattus norvegicus; assay: DrugMatrix - Regimen: Daily Repeat; assay type: toxicity, organism-based, Sprague-Dawley; design: regimen Daily Repeat, gender Male, age 6-8 weeks; conditions: in vivo, po, 0 mg/kg, 120 h, tissue Blood, route oral GAVAGE, dose level Control, time 5 day, […]
Attribute: HEMOGLOBIN
Quantity Name: HEMOGLOBIN (G/DL)

INSERT INTO assay_data (compound, value_unit, observed_measurement) VALUES
  ('CC(=O)Oc1ccccc1C(=O)O [ASPIRIN]', 'G/DL', 13.5),
  ('CC(C)c1c(C(=O)Nc2ccccc2)c(-c2ccccc2)c(-c2ccc(F)cc2)n1CC[C@@H](O)C[C@@H](O)CC(=O)O [ATORVASTATIN]', 'G/DL', 13.02),
  ('CCCCC(=O)N(Cc1ccc(-c2ccccc2-c2nnn[nH]2)cc1)[C@H](C(=O)O)C(C)C', 'G/DL', 13.38),
  ('CCc1ccc(CCOc2ccc(CC3SC(=O)NC3=O)cc2)nc1 (configuration not stated) [PIOGLITAZONE]', 'G/DL', 13.17),
  ('c1ccoc1 [FURAN]', 'G/DL', 14.42),
  ('O=c1c(-c2ccc(O)cc2)coc2cc(O)cc(O)c12 [GENISTEIN]', 'G/DL', 13.02),
  ('CS(=O)(=O)Nc1ccc([N+](=O)[O-])cc1Oc1ccccc1 [NIMESULIDE]', 'G/DL', 13.17);
